Test system: recombinant guanylate cyclase reporter cell line
Experiment Notes: Effect on a recombinant guanylate cyclase reporter cell line
Format: cell-based
Settings: minimum effective concentration; in some cases means of individual determinations; read-out: MEC
Description: B-2. Effect on a Recombinant Guanylate Cyclase Reporter Cell Line The cellular activity of the compounds of the invention is determined using a recombinant guanylate cyclase reporter cell line, as described in F. Wunder et al., Anal. Biochem. 339, 104-112 (2005). Representative values (MEC=minimum effective concentration) for the compounds of the invention are shown in the table below (Table 1; in some cases as means of individual determinations): […]
Endpoint: minimal effective concentration (µM)
Respond numerically; units are µM and should not be typed.

Prompt: I'd like to know its minimal effective concentration. The compound in question is Cc1nc2c(cc1F)c(-c1nc(NCC(N)(CF)CF)c3c(n1)NC(=O)C3(C)C(F)(F)F)nn2Cc1cccc(F)c1F (single isomer, unassigned; ent-4) [Example 7]
Response: 0.3

Prompt: I'd like to know its minimal effective concentration. The compound in question is Cc1nc2c(cc1F)c(-c1nc(NCC(N)(CF)CF)c3c(n1)NC(=O)C3(C)C(F)(F)F)nn2Cc1ncccc1F (single isomer, unassigned; ent-4) [Example 16]
Response: 0.07

Prompt: I'd like to know its minimal effective concentration. The compound in question is CC1(C)C(=O)Nc2nc(-c3nn(Cc4ncccc4F)c4ncc(F)cc34)nc(NCC(N)(CF)CF)c21 [Example 5]
Response: 1

Prompt: I'd like to know its minimal effective concentration. The compound in question is Cc1nc2c(cc1F)c(-c1nc(NCC(N)(CF)CF)c3c(n1)NC(=O)C3(C)C(F)(F)F)nn2Cc1c(F)ccc(F)c1F (single isomer, unassigned; ent-4) [Example 14]
Response: 0.1

Prompt: I'd like to know its minimal effective concentration. The compound in question is Cc1nc2c(cc1F)c(-c1nc(NCC(N)(CF)CF)c3c(n1)NC(=O)C3(C)C)nn2Cc1ncccc1F [Example 4]
Response: 1

Prompt: I'd like to know its minimal effective concentration. The compound in question is Cc1nc2c(cc1F)c(-c1nc(NCC(N)(CF)CF)c3c(n1)NC(=O)C3(C)C(F)(F)F)nn2Cc1cccc(F)c1F (racemic) [Example 6]
Response: 0.1

----------
Could you please report measured minimal effective concentration for the items listed next?
Tested on: recombinant guanylate cyclase reporter cell line
Experiment Notes: Effect on a recombinant guanylate cyclase reporter cell line
Type: cell-based
Settings: minimum effective concentration; in some cases means of individual determinations; read-out: MEC
Structures can show the parent of a compound that is named as a salt.
Respond numerically; units are µM and should not be typed.

Prompt: I'd like to know its minimal effective concentration. The compound in question is CC1(C(F)(F)F)C(=O)Nc2nc(-c3nn(Cc4ncccc4F)c4ncc(F)cc34)nc(NCC(N)(CF)CF)c21 (racemic) [Example 18]
Response: 0.1

Prompt: I'd like to know its minimal effective concentration. The compound in question is Cc1nc2c(cc1F)c(-c1nc(NCC(N)(CF)CF)c3c(n1)NC(=O)C3(C)C)nn2Cc1c(F)ccc(F)c1F
Response: 0.03

Prompt: I'd like to know its minimal effective concentration. The compound in question is Cc1nc2c(cc1F)c(-c1nc(NCC(N)(CF)CF)c3c(n1)NC(=O)C3(C)C)nn2Cc1ccccc1F
Response: 0.1

Prompt: I'd like to know its minimal effective concentration. The compound in question is CC1(C)C(=O)Nc2nc(-c3nn(Cc4ccccc4F)c4cc(Cl)ccc34)nc(NCC(N)(CF)CF)c21 [Example 21, trifluoroacetate]
Response: 0.3

Prompt: I'd like to know its minimal effective concentration. The compound in question is Cc1nc2c(cc1F)c(-c1nc(NCC(N)(CF)CF)c3c(n1)NC(=O)C3(C)C(F)(F)F)nn2Cc1c(F)ccc(F)c1F (single isomer, unassigned; ent-4) [Example 13]
Response: 0.3

Prompt: I'd like to know its minimal effective concentration. The compound in question is Cc1nc2c(cc1F)c(-c1nc(NCC(N)(CF)CF)c3c(n1)NC(=O)C3(C)C(F)(F)F)nn2Cc1cccc(F)c1F (single isomer, unassigned; ent-4) [Example 8]
Response: 0.1

Prompt: I'd like to know its minimal effective concentration. The compound in question is CC1(C(F)(F)F)C(=O)Nc2nc(-c3nn(Cc4ncccc4F)c4ncc(F)cc34)nc(NCC(N)(CF)CF)c21 (single isomer, unassigned; ent-4) [Example 19]
Response: 0.07

----------
Reported pIC50 for target or system human phosphodiesterase 5 (PDE 5) (Homo sapiens), by entry.
When answering, recall that pIC50 equals minus log10 of the concentration in mol/L, and write that number alone.

Prompt: I'd like to know its pIC50. The compound in question is Cc1nc2c(cc1F)c(-c1nc(NCC(N)(CF)CF)c3c(n1)NC(=O)C3(C)C(F)(F)F)nn2Cc1c(F)ccc(F)c1F (single isomer, unassigned; ent-4) [Example 13]
Response: 6.52

Prompt: I'd like to know its pIC50. The compound in question is Cc1nc2c(cc1F)c(-c1nc(NCC(N)(CF)CF)c3c(n1)NC(=O)C3(C)C(F)(F)F)nn2Cc1cccc(F)c1F (racemic) [Example 6]
Response: 7.49

Prompt: I'd like to know its pIC50. The compound in question is Cc1nc2c(cc1F)c(-c1nc(NCC(N)(CF)CF)c3c(n1)NC(=O)C3(C)C(F)(F)F)nn2Cc1ccccc1F (single isomer, unassigned; ent-4) [Example 10]
Response: 6.54

Prompt: I'd like to know its pIC50. The compound in question is Cc1nc2c(cc1F)c(-c1nc(NCC(N)(CF)CF)c3c(n1)NC(=O)C3(C)C(F)(F)F)nn2Cc1ncccc1F (racemic) [Example 15]
Response: 7.00

Prompt: I'd like to know its pIC50. The compound in question is CC1(C(F)(F)F)C(=O)Nc2nc(-c3nn(Cc4ncccc4F)c4ncc(F)cc34)nc(NCC(N)(CF)CF)c21 (single isomer, unassigned; ent-4) [Example 20]
Response: 6.92

Prompt: I'd like to know its pIC50. The compound in question is Cc1nc2c(cc1F)c(-c1nc(NCC(N)(CF)CF)c3c(n1)NC(=O)C3(C)C(F)(F)F)nn2Cc1cccc(F)c1F (single isomer, unassigned; ent-4) [Example 7]
Response: 6.92

Prompt: I'd like to know its pIC50. The compound in question is Cc1nc2c(cc1F)c(-c1nc(NCC(N)(CF)CF)c3c(n1)NC(=O)C3(C)C)nn2Cc1cccc(F)c1F [Example 1]
Response: 7.28

Prompt: I'd like to know its pIC50. The compound in question is Cc1nc2c(cc1F)c(-c1nc(NCC(N)(CF)CF)c3c(n1)NC(=O)C3(C)C(F)(F)F)nn2Cc1ncccc1F (single isomer, unassigned; ent-4) [Example 16]
Response: 7.24

----------
Could you please report measured solubility at 24 h for the items listed next?
Experiment Notes: Solubility of substances in buffer pH 6.5
Type: physicochemical
Settings: aqueous buffer, kinetic from dmso stock, PBS buffer pH 6.5, room temperature
Description: B-10. Determination of the Solubility of Substances in Buffer pH 6.5 40 μl of DMSO are added to 2 mg of a test substance [50 g/l]. 10 μl of this solution are removed and introduced into 990 μl of PBS buffer pH 6.5 (c=500 μg/ml). This solution/suspension is shaken at room temperature for 24 h. After 30 min of ultracentrifugation at 114 000 g, the supernatant is removed, diluted with ACN/water 8:2 and analyzed by LC-MSMS. […]
Respond numerically; units are µg/mL and should not be typed.

Prompt: I'd like to know its solubility at 24 h. The molecule in question is Cc1nc2c(cc1F)c(-c1nc(NCC(N)(CF)CF)c3c(n1)NC(=O)C3(C)C)nn2Cc1cccc(F)c1F
Response: 7.6

Prompt: I'd like to know its solubility at 24 h. The molecule in question is Cc1nc2c(cc1F)c(-c1nc(NCC(N)(CF)CF)c3c(n1)NC(=O)C3(C)C)nn2Cc1ccccc1F
Response: 5.1

Prompt: I'd like to know its solubility at 24 h. The molecule in question is Cc1nc2c(cc1F)c(-c1nc(NCC(N)(CF)CF)c3c(n1)NC(=O)C3(C)C)nn2Cc1ncccc1F
Response: 260

Prompt: I'd like to know its solubility at 24 h. The molecule in question is CC1(C)C(=O)Nc2nc(-c3nn(Cc4ncccc4F)c4ncc(F)cc34)nc(NCC(N)(CF)CF)c21
Response: 278

Data provenance is patent US20170240566A1.
